Tested on: M5M12
Assay: Test B greenhouse phytotoxicity, M5M12
Type: in vivo, sunflower
Conditions: in vivo
Protocol: A greenhouse experiment was conducted to evaluate the spectrum of tolerance of three homozygous resistant mutants to various herbicides inhibiting acetolactate synthase (ALS) as their mode of action. The inbred lines tested were the 5th generation self-pollinated maintainers, M5M7, M5M11 and M5M12, as well as the 4th generation male sterile back-crosses BC4-M5M7, BC4-M5M11 and BC4-M5M12. Treatments of formulated herbicides were applied post-emergence at the 4-leaf stage. […]
Structures can show the parent of a compound that is named as a salt.
Assay Metric: Maximum Phytotoxicity
Write down the value, and be sure its unit follows.

In plain terms, COc1cc(OC)nc(Sc2cccc(Cl)c2C(=O)O)n1 [Pyrithiobac-sodium] has a documented Maximum Phytotoxicity of 40%

In plain terms, COC(=O)c1ccc(C(F)(F)F)nc1S(=O)(=O)NC(=O)Nc1nc(OC)cc(OC)n1 [Flupyrsulfuron-methyl-sodium] has a documented Maximum Phytotoxicity of 57.5%

In plain terms, `COc1nc(C)nc(NC(=O)NS(=O)(=O)c2ccccc2Cl)n1` has a documented Maximum Phytotoxicity of 45%

In plain terms, `CCS(=O)(=O)c1nc2ccccn2c1S(=O)(=O)NC(=O)Nc1nc(OC)cc(OC)n1` has a documented Maximum Phytotoxicity of 65%

In plain terms, `COC(=O)c1ccccc1S(=O)(=O)NC(=O)N(C)c1nc(C)nc(OC)n1` has a documented Maximum Phytotoxicity of 7.5%

In plain terms, `COc1cc(OC)nc(NC(=O)NS(=O)(=O)N(C)S(C)(=O)=O)n1` has a documented Maximum Phytotoxicity of 45%

In plain terms, CCc1cnc(C2=NC(C)(C(C)C)C(=O)N2)c(C(=O)O)c1 (centres unmarked) [Imazethapyr (ammonium salt), Imazethapyr] has a documented Maximum Phytotoxicity of 22.5%

In plain terms, `CCS(=O)(=O)c1cccnc1S(=O)(=O)NC(=O)Nc1nc(OC)cc(OC)n1` has a documented Maximum Phytotoxicity of 55%
